All values here come from patent US9498483B2.

Test system: HCV replicon I389luc-ubi-neo/NS3-3′/ET in ET (Huh-lucubineo-ET) cells
Test: Replicon assay (Biological Example 2), luciferase readout
Assay type: cell-based
Settings: Hepatitis C virus; ET cells, luciferase activity 48 hours after compound
attribute.measured: IC50

In: Report IC50 for CN(C)c1ccc(-c2ccc(S(=O)(=O)N3CC(=O)N(c4cc(-c5ccccc5)sc4C(=O)O)[C@H](C4CCCCC4)C3)cn2)cc1 [Compound 203] please.
Out: ≤ 100 nM

In: Report IC50 for CC(C)(C)OC(=O)NCC1CCN(c2ccc(S(=O)(=O)N3CC(=O)N(c4cc(-c5ccccc5)sc4C(=O)O)[C@H](C4CCCCC4)C3)cn2)CC1 [Compound 149] please.
Out: ≤ 100 nM

In: Report IC50 for O=C(O)c1sc(-c2ccccc2)cc1N1C(=O)CN(S(=O)(=O)c2ccc(-c3ccc4c(c3)OCCCO4)nc2)C[C@H]1C1CCCCC1 [Compound 212] please.
Out: ≤ 100 nM

In: Report IC50 for C[C@H]1CN(c2ccc(S(=O)(=O)N3CC(=O)N(c4cc(-c5ccccc5)sc4C(=O)O)[C@H](C4CCCCC4)C3)cn2)CCN1 [Compound 145] please.
Out: ≤ 100 nM

In: Report IC50 for O=C(O)c1sc(-c2ccc(C(F)(F)F)cc2)cc1N1C(=O)CCCC1C1CCCCC1 (stereo not shown) [Compound 117] please.
Out: ≥ 5000 nM

In: Report IC50 for CCn1cc(S(=O)(=O)N2CC(=O)N(c3cc(C#CC(C)(C)C)sc3C(=O)O)[C@H](C3CCCCC3)C2)cn1 [Compound 275] please.
Out: ≤ 100 nM

In: Report IC50 for O=C(O)c1ccc(-c2ccc(S(=O)(=O)N3CC(=O)N(c4cc(-c5ccccc5)sc4C(=O)O)[C@H](C4CCCCC4)C3)cn2)s1 [Compound 210] please.
Out: ≥ 5000 nM

In: Report IC50 for O=C(O)c1sc(-c2ccccc2)cc1N1C(=O)CN(S(=O)(=O)c2ccc(N3CCC(O)CC3)nc2)CC1C1CCCCC1 (stereo not shown) [Compound 93] please.
Out: ≤ 100 nM

In: Report IC50 for O=C(O)c1sc(-c2ccccc2)cc1N1C(=O)CN(S(=O)(=O)C2CCN(C(=O)OCc3ccccc3)CC2)CC1C1CCCCC1 (stereo not shown) [Compound 112] please.
Out: ≥ 5000 nM

In: Report IC50 for CC(C)N1CCN(c2ccc(S(=O)(=O)N3CC(=O)N(c4cc(-c5ccccc5)sc4C(=O)O)[C@H](C4CCCCC4)C3)cn2)CC1 [Compound 160] please.
Out: ≤ 100 nM

In: Report IC50 for COc1ccc(S(=O)(=O)N2CC(=O)N(c3cc(C#CC(C)(C)C)sc3C(=O)O)[C@H](C3CCCCC3)C2)cc1OC [Compound 277] please.
Out: ≤ 100 nM

In: Report IC50 for CC1(O)CCN(c2ccc(S(=O)(=O)N3CC(=O)N(c4cc(-c5ccc(F)cc5)sc4C(=O)O)[C@H](C4CCCCC4)C3)cn2)C1 (stereo partly shown) [Compound 288] please.
Out: ≤ 100 nM

In: Report IC50 for CC(C)(C)C#Cc1cc(N2C(=O)CCCC2C2CCCCC2)c(C(=O)O)s1 (stereo not shown) [Compound 19] please.
Out: ≤ 100 nM

* * *

attribute.measured: pIC50
Please note pIC50 is a logarithmic value: minus log10 of concentration in mol/L. Answer with that number alone.

In: // map CN(C)C1CCCN(c2ccc(S(=O)(=O)N3CC(=O)N(c4cc(-c5ccccc5)sc4C(=O)O)[C@H](C4CCCCC4)C3)cn2)C1 (stereo partly drawn) [Compound 155] to recorded pIC50 (system: HCV polymerase (Hepatitis C virus genotype 1b, UniProt Q9WMX2))
Out: 8.52

In: // map Cc1ccc(-c2cc(N3C(=O)CN(S(=O)(=O)c4ccc(C(F)(F)F)nc4)C[C@H]3C3CCCCC3)c(C(=O)O)s2)cc1 [Compound 300] to recorded pIC50 (system: HCV polymerase (Hepatitis C virus genotype 1b, UniProt Q9WMX2))
Out: 7.51

In: // map O=C(O)c1ccc(-c2ccc(S(=O)(=O)N3CC(=O)N(c4cc(-c5ccccc5)sc4C(=O)O)[C@H](C4CCCCC4)C3)cn2)s1 [Compound 210] to recorded pIC50 (system: HCV polymerase (Hepatitis C virus genotype 1b, UniProt Q9WMX2))
Out: 8.52

In: // map C[C@@H](O)CC[C@@]1(C)OC[C@@H](C2CCCCC2)N(c2cc(C#CC(C)(C)C)sc2C(=O)O)C1=O [Compound 321] to recorded pIC50 (system: HCV polymerase (Hepatitis C virus genotype 1b, UniProt Q9WMX2))
Out: 8.70

In: // map O=C(O)c1sc(-c2ccc(F)cc2)cc1N1C(=O)CN(S(=O)(=O)c2ccc(N3CCOCC3)nc2)C[C@H]1C1CCCCC1 [Compound 189] to recorded pIC50 (system: HCV polymerase (Hepatitis C virus genotype 1b, UniProt Q9WMX2))
Out: 9.00

In: // map O=C(O)c1sc(-c2ccccc2)cc1N1C(=O)CN(S(=O)(=O)c2ccc(N3CCCC3)nc2)CC1C1CCCCC1 (stereo not drawn) [Compound 76] to recorded pIC50 (system: HCV polymerase (Hepatitis C virus genotype 1b, UniProt Q9WMX2))
Out: 8.40

* * *

Let's go through some recorded pIC50 values for HCV polymerase (Hepatitis C virus genotype 1b, UniProt Q9WMX2) together.
Please note pIC50 is a logarithmic value: minus log10 of concentration in mol/L. Answer with that number alone.

In: Report pIC50 for O=C(O)c1sc(-c2ccccc2)cc1N1C(=O)CN(Cc2cccc(-n3cccc3)c2)C[C@H]1C1CCCCC1 [Compound 261] please.
Out: 6.70

In: Report pIC50 for O=C(Cc1ccccc1)NC1CC(=O)N(c2cc(-c3ccccc3)sc2C(=O)O)C(C2CCCCC2)C1 (stereo not drawn) [Compound 20] please.
Out: 6.89

In: Report pIC50 for CC(C)(C)C#Cc1cc(N2C(=O)CN(S(=O)(=O)c3cccc(Cl)c3)C[C@H]2C2CCCCC2)c(C(=O)O)s1 [Compound 242] please.
Out: 8.30

In: Report pIC50 for O=C(O)c1sc(-c2ccc(Cl)cc2)cc1N1C(=O)CN(S(=O)(=O)c2ccc(N3C[C@H]4C[C@@H]3CO4)nc2)C[C@H]1C1CCCCC1 [Compound 274] please.
Out: 9.00

In: Report pIC50 for Cc1ccc(S(=O)(=O)N2CC(=O)N(c3cc(-c4ccccc4)sc3C(=O)O)[C@H](C3CCCCC3)C2)cc1 [Compound 18] please.
Out: 8.70

In: Report pIC50 for O=C(O)c1sc(-c2ccccc2)cc1N1C(=O)CN(S(=O)(=O)c2ccc(-c3ccn[nH]3)nc2)C[C@H]1C1CCCCC1 [Compound 209] please.
Out: 9.00

In: Report pIC50 for CC(C)(C)C#Cc1cc(N2C(=O)CN(S(=O)(=O)c3ccccc3OC(F)(F)F)C[C@H]2C2CCCCC2)c(C(=O)O)s1 [Compound 249] please.
Out: 7.72

In: Report pIC50 for CC(C)(C)C#Cc1cc(N2C(=O)[C@](C)(CCC(C)(C)O)OC[C@H]2C2CCCCC2)c(C(=O)O)s1 [Compound 318] please.
Out: 7.85

In: Report pIC50 for CC(C)(C)C#Cc1cc(N2C(=O)CN(S(=O)(=O)c3ccc(C(F)(F)F)nc3)C[C@H]2C2CCCCC2)c(C(=O)O)s1 [Compound 230] please.
Out: 8.22

In: Report pIC50 for CC(C)(C)C#Cc1cc(N2C(=O)CN(S(=O)(=O)c3cccc(F)c3)C[C@H]2C2CCCCC2)c(C(=O)O)s1 [Compound 239] please.
Out: 8.70

In: Report pIC50 for CNC(=O)c1ccc(S(=O)(=O)N2CC(=O)N(c3cc(-c4ccccc4)sc3C(=O)O)C(C3CCCCC3)C2)cc1 (stereo not drawn) [Compound 98] please.
Out: 8.52

In: Report pIC50 for O=C(O)c1sc(-c2ccc(Cl)cc2)cc1N1C(=O)CN(S(=O)(=O)c2ccc(N3CCCC3)cc2)C[C@H]1C1CCCCC1 [Compound 231] please.
Out: 9.00

In: Report pIC50 for O=C(O)c1sc(-c2ccccc2)cc1N1C(=O)CCCC1C1CCCCC1 (stereo not drawn) [Compound 4] please.
Out: 7.14

In: Report pIC50 for O=C(O)c1sc(-c2ccccc2)cc1N1C(=O)CN(Cc2ccc(Cl)nc2)C[C@H]1C1CCCCC1 [Compound 267] please.
Out: 7.19

In: Report pIC50 for Cc1ccc(-c2cc(N3C(=O)CN(S(=O)(=O)c4cnn(CC(C)C)c4)C[C@H]3C3CCCCC3)c(C(=O)O)s2)cc1 [Compound 301] please.
Out: 8.40

In: Report pIC50 for COCCN(CCOC)c1ccc(S(=O)(=O)N2CC(=O)N(c3cc(-c4ccccc4)sc3C(=O)O)C(C3CCCCC3)C2)cn1 (stereo not drawn) [Compound 80] please.
Out: 8.22

In: Report pIC50 for Cc1ccc(-c2cc(N3C(=O)C(C)(O)CCC3C3CCCCC3)c(C(=O)O)s2)cc1 (stereo not drawn) [Compound 5] please.
Out: 7.28

In: Report pIC50 for O=C(O)c1sc(-c2ccccc2)cc1N1C(=O)CN(S(=O)(=O)c2ccc(NCCO)nc2)CC1C1CCCCC1 (stereo not drawn) [Compound 86] please.
Out: 8.22

In: Report pIC50 for CC1CCN(S(=O)(=O)N2CC(=O)N(c3cc(-c4ccccc4)sc3C(=O)O)C(C3CCCCC3)C2)CC1 (stereo not drawn) [Compound 36] please.
Out: 7.24

In: Report pIC50 for NCCS(=O)(=O)N1CC(=O)N(c2cc(-c3ccccc3)sc2C(=O)O)C(C2CCCCC2)C1 (stereo not drawn) [Compound 47] please.
Out: 7.06

In: Report pIC50 for CC(C)(C)C#Cc1cc(N2C(=O)OCCC2C2CCCCC2)c(C(=O)O)s1 (stereo not drawn) [Compound 308] please.
Out: 7.85

In: Report pIC50 for C[C@H]1[C@@H](C2CCCCC2)N(c2cc(C#CC(C)(C)C)sc2C(=O)O)C(=O)N1C [Compound 237] please.
Out: 7.38

In: Report pIC50 for O=C(O)c1sc(-c2ccccc2)cc1N1C(=O)CN(S(=O)(=O)c2ccc(N3CC[C@@H](O)C3)nc2)CC1C1CCCCC1 (stereo partly drawn) [Compound 123] please.
Out: 8.70

In: Report pIC50 for O=C(O)c1sc(-c2ccccc2)cc1N1C(=O)CN(S(=O)(=O)c2ccc(N3CCCC3)nc2)C[C@@H]1C1CCCCC1 [Compound 136] please.
Out: 6.59

In: Report pIC50 for CCCN(CCC)c1ccc(S(=O)(=O)N2CC(=O)N(c3cc(-c4ccccc4)sc3C(=O)O)C(C3CCCCC3)C2)cn1 (stereo not drawn) [Compound 77] please.
Out: 8.52

In: Report pIC50 for Cc1ccc(-c2cc(N3C(=O)CN(S(=O)(=O)c4ccc(C(C)(C)C)nc4)C[C@H]3C3CCCCC3)c(C(=O)O)s2)cc1 [Compound 303] please.
Out: 8.40

In: Report pIC50 for CN(C)[C@H]1CCN(c2ccc(S(=O)(=O)N3CC(=O)N(c4cc(-c5ccccc5)sc4C(=O)O)[C@H](C4CCCCC4)C3)cn2)C1 [Compound 156] please.
Out: 9.00
